# assay target: human mGlu5a receptor (Homo sapiens)
# Construct: expressed in transfected cells
# assay explanation: Intracellular Ca2+ mobilization assay (mGlu5 PAM)
# Assay type: cell-based
# condition: HEK293, maximal response in % of the maximal stimulatory effect obtained with saturating concentrations of L-glutamate; HEK-293 human mGlu5a cells; read-out: Eff. (%)
// classify(record): look up Emax in ranges bottom range: < 50%; center range: ≥ 50% and < 70%; top range: ≥ 70%

Class label required: "CN(C(=O)c1ccc(C#Cc2cccc(F)c2)cn1)C1(C)COC1"
center range

Class label required: CC1(C)CC(O)CCN1C(=O)c1ccc(C#Cc2ccccc2)cn1 (racemic)
center range

Class label required: "CN(C(=O)c1ccc(C#Cc2ccccc2)cn1)C(C)(C)C"
top range

Class label required: "CN(C(=O)c1ccc(C#Cc2cccc(F)c2)cn1)C(C)(C)C"
center range

* * *

# assay target: human mGlu5a receptor (Homo sapiens)
# Construct: expressed in transfected cells
# assay explanation: Intracellular Ca2+ mobilization assay (mGlu5 PAM)
# Type: cell-based
# condition: HEK293, maximal response in % of the maximal stimulatory effect obtained with saturating concentrations of L-glutamate; HEK-293 human mGlu5a cells; read-out: Eff. (%)
// classify(record): look up Emax in ranges b0: < 50%; b1: ≥ 50% and < 70%; b2: ≥ 70%

compound | class name
CC(C)(NC(=O)c1ccc(C#Cc2ccnc(Cl)c2)cn1)C(F)(F)F | b2

Let us examine a further case.
Class label required: CC1(C)CN(C(=O)c2ccc(C#Cc3ccccc3)cn2)CCC1O (racemic)
b1

* * *

# Emax listing for each entry below
# assay target: human mGlu5a receptor (Homo sapiens)
# Construct: expressed in transfected cells
# assay explanation: Intracellular Ca2+ mobilization assay (mGlu5 PAM)
# Assay type: cell-based
# condition: HEK293, maximal response in % of the maximal stimulatory effect obtained with saturating concentrations of L-glutamate; HEK-293 human mGlu5a cells; read-out: Eff. (%)
Note: unit % is implicit; provide only the numeric part.

Consider the worked cases shown below.
given smiles | measurement name | test value
Cc1cc(C#Cc2cc(F)ccc2F)cnc1C(=O)N(C)C(C)(C)C | Emax | 29
CC1(O)CCN(C(=O)c2ccc(C#Cc3cccc(F)c3)cn2)CC1 | Emax | 38
CN(C(=O)c1ccc(C#Cc2cncc(Cl)c2)cn1)C(C)(C)C | Emax | 33

Item: "CN(C(=O)c1ncc(C#Cc2cc(F)ccc2F)cn1)C(C)(C)C" | Emax: 32

Item: "CN(C(=O)c1ccc(C#Cc2cncc(F)c2)cn1)C(C)(C)C" | Emax: 79

* * *

# assay target: human mGlu5a receptor (Homo sapiens)
# Construct: expressed in transfected cells
# assay explanation: Intracellular Ca2+ mobilization assay (mGlu5 PAM)
# Format: cell-based
# condition: HEK-293 cells stably transfected with human mGlu5a receptor; L-glutamate added at EC20 (typically around 80 μM) after 10-30 min pre-incubation with test compound; read-out: EC50 (nM) mGlu5PAM
Sorting guide: entries reporting EC50 beneath 30 nM go in the T pile, the rest go in the F pile.

// known answers, use as guide
molecule | assay target | class name
CC1(C)CC(O)CCN1C(=O)c1ccc(C#Cc2cc(F)ccc2F)cn1 (racemic) [Example 64] | human mGlu5a receptor (Homo sapiens) | F
CC1(C)CC(O)CCN1C(=O)c1ccc(C#Cc2cccc(F)c2)cn1 (racemic) [Example 63] | human mGlu5a receptor (Homo sapiens) | F
CN(C(=O)c1ccc(C#Cc2ccc(F)cc2)cn1)C1(C)CC1 [Example 32] | human mGlu5a receptor (Homo sapiens) | T
CC(C)(C)NC(=O)c1ncc(C#Cc2cccc(Cl)c2)cn1 [Example 14] | human mGlu5a receptor (Homo sapiens) | F
CC1(C)CN(C(=O)c2ccc(C#Cc3cccc(F)c3)cn2)CCC1O (racemic) [Example 41] | human mGlu5a receptor (Homo sapiens) | F

Report whether reported EC50 is lower than 30 nM (strictly) for CN(C(=O)c1ccc(C#Cc2cccnc2)cn1)C(C)(C)C [Example 6]
F

* * *

# assay target: human mGlu5a receptor (Homo sapiens, UniProt P41594)
# Construct: expressed in transfected cells
# Sequence (P41594 21-1180 isoform P41594-2 limits assumed): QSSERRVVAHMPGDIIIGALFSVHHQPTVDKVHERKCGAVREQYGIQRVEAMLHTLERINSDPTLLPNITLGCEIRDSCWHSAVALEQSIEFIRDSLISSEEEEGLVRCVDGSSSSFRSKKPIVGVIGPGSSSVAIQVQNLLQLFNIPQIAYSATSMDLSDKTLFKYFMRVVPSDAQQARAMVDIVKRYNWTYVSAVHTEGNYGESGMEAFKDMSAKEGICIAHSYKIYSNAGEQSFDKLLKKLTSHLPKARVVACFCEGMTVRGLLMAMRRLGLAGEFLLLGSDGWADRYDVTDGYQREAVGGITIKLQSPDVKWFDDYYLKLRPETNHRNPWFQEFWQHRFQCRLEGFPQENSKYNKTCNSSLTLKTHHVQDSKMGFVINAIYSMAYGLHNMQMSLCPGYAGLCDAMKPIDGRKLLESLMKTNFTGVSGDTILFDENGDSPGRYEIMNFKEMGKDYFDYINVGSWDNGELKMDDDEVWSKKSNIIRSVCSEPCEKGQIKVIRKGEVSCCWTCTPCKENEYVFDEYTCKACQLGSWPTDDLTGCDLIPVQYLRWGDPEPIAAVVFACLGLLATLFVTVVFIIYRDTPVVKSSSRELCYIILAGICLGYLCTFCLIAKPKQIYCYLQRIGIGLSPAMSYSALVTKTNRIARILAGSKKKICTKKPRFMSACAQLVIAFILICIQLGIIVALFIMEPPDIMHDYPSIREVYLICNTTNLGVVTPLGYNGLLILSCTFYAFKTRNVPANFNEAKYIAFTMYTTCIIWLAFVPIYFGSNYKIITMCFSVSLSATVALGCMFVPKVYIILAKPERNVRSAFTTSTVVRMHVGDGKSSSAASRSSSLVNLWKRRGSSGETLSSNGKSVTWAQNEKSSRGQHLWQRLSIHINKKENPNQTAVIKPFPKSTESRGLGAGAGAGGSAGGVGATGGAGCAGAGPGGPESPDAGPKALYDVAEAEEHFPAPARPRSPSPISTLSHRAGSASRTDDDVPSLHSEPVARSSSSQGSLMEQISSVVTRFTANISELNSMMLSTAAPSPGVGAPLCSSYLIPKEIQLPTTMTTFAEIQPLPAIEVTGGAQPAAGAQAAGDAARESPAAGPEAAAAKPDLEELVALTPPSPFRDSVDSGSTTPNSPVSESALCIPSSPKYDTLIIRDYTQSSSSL
# assay explanation: Intracellular Ca2+ mobilization assay (mGlu5 PAM)
# Assay type: cell-based
# condition: HEK293, maximal response in % of the maximal stimulatory effect obtained with saturating concentrations of L-glutamate; HEK-293 human mGlu5a cells; read-out: Eff. (%)
measurement name: Emax (%)
Note: unit % is implicit; provide only the numeric part.

Item: "CN(C(=O)c1ccc(C#Cc2cc(F)ccc2F)cn1)C(C)(C)C" | Emax: 42

* * *

# assay target: human mGlu5a receptor (Homo sapiens)
# Construct: expressed in transfected cells
# assay explanation: Intracellular Ca2+ mobilization assay (mGlu5 PAM)
# Format: cell-based
# condition: HEK-293 cells stably transfected with human mGlu5a receptor; L-glutamate added at EC20 (typically around 80 μM) after 10-30 min pre-incubation with test compound; read-out: EC50 (nM) mGlu5PAM
Sorting guide: entries reporting EC50 beneath 50 nM go in the yes (1) pile, the rest go in the no (0) pile.

// known answers, use as guide
molecule | class name
CN(C(=O)c1ccc(C#Cc2ccccc2)cn1)C(C)(C)C [Example 2] | yes (1)
CC1(C)CN(C(=O)c2ncc(C#Cc3cccc(F)c3)cn2)CCC1O (racemic) [Example 49] | no (0)
CN(C(=O)c1ncc(C#Cc2cncc(Cl)c2)cn1)C(C)(C)C [Example 16] | no (0)

Report whether reported EC50 is lower than 50 nM (strictly) for CC(C)(NC(=O)c1ccc(C#Cc2ccnc(Cl)c2)cn1)C(F)(F)F [Example 54]
yes (1)

* * *

# assay target: human mGlu5a receptor (Homo sapiens)
# Construct: expressed in transfected cells
# assay explanation: Intracellular Ca2+ mobilization assay (mGlu5 PAM)
# Assay type: cell-based
# condition: HEK293, maximal response in % of the maximal stimulatory effect obtained with saturating concentrations of L-glutamate; HEK-293 human mGlu5a cells; read-out: Eff. (%)
Sorting guide: entries reporting Emax beneath 40% go in the criterion met pile, the rest go in the criterion not met pile.

// known answers, use as guide
molecule | class name
CC(C)(NC(=O)c1ncc(C#Cc2ccnc(Cl)c2)cn1)C(F)(F)F [Example 58] | criterion met
CN(C(=O)c1ncc(C#Cc2cccc(F)c2)cc1F)C1(C)CC1 [Example 42] | criterion met
CC1(C)CN(C(=O)c2ccc(C#Cc3cc(F)ccc3F)cn2)CCO1 [Example 36] | criterion not met

Report whether reported Emax is lower than 40% (strictly) for Cc1cc(C#Cc2cncc(Cl)c2)cnc1C(=O)N(C)C(C)(C)C [Example 20]
criterion met

Report whether reported Emax is lower than 40% (strictly) for CN(C(=O)c1ccc(C#Cc2cccc(Cl)c2)cn1)C(C)(C)C(F)(F)F [Example 56]
criterion met

Report whether reported Emax is lower than 40% (strictly) for CN(C(=O)c1ncc(C#Cc2cccc(F)c2)cc1F)C(C)(C)C [Example 21]
criterion not met

Report whether reported Emax is lower than 40% (strictly) for CN(C(=O)c1ccc(C#Cc2cccc(Cl)c2)cn1)C1(C(F)(F)F)CC1 [Example 33]
criterion met

* * *

# assay target: human mGlu5a receptor (Homo sapiens)
# Construct: expressed in transfected cells
# assay explanation: Intracellular Ca2+ mobilization assay (mGlu5 PAM)
# Type: cell-based
# condition: HEK-293 cells stably transfected with human mGlu5a receptor; L-glutamate added at EC20 (typically around 80 μM) after 10-30 min pre-incubation with test compound; read-out: EC50 (nM) mGlu5PAM
# Description: A monoclonal HEK-293 cell line stably transfected with a cDNA encoding for the human mGlu5a receptor was generated; for the work with mGlu5 Positive Allosteric Modulators (PAMs), a cell line with low receptor expression levels and low constitutive receptor activity was selected to allow the differentiation of agonistic versus PAM activity. […]
measurement name: EC50 (nM)
Note: unit nM is implicit; provide only the numeric part.

Consider the worked cases shown below.
compound | EC50 [nM]
CN(C(=O)c1ncc(C#Cc2cncc(Cl)c2)cc1F)C(C)(C)C | 11
CC(C)(NC(=O)c1ncc(C#Cc2ccnc(Cl)c2)cn1)C(F)(F)F | 57

Now for the compound whose EC50 we want.
Item: "CN(C(=O)c1ccc(C#Cc2cncc(Cl)c2)cn1)C(C)(C)C(F)(F)F" | EC50: 37

* * *

# assay target: human mGlu5a receptor (Homo sapiens)
# Construct: expressed in transfected cells
# assay explanation: Intracellular Ca2+ mobilization assay (mGlu5 PAM)
# Assay type: cell-based
# condition: HEK293, maximal response in % of the maximal stimulatory effect obtained with saturating concentrations of L-glutamate; HEK-293 human mGlu5a cells; read-out: Eff. (%)
measurement name: Emax (%)
Note: unit % is implicit; provide only the numeric part.

Consider the worked cases shown below.
molecule | Emax (%)
CC(NC(=O)c1ccc(C#Cc2ccnc(Cl)c2)cn1)C(F)(F)F (racemic) [Example 57] | 42
CN(C(=O)c1ncc(C#Cc2ccccc2)cc1Cl)C(C)(C)C | 69
CN(C(=O)c1ccc(C#Cc2cncc(Cl)c2)cn1)C(C)(C)C(F)(F)F | 63
CN(C(=O)c1ncc(C#Cc2ccccc2)cc1F)C1(C)COC1 | 67
Cc1cccc(C#Cc2cnc(C(=O)NC(C)(C)C)nc2)c1 | 83

Item: CC1(C)CC(O)CCN1C(=O)c1ncc(C#Cc2cc(F)ccc2F)cc1F (racemic) | Emax: 54

Item: "CN(C(=O)c1ccc(C#Cc2cccc(F)c2)cn1)C1(C)CC1" | Emax: 43
